System: MCF7
Experiment: Growth inhibition of MCF7 cells after 4 days
Type: functional
Details: Homo sapiens, MCF7, 96 h
RESULT TYPE: GI50 (µM)

A selection of reference data follows.
SMILES STRING: O=c1c2ccccc2nc2n1Cc1cc3ccccc3nc1-2
GI50 [µM]: 3
//
SMILES STRING: CC[C@@]1(O)C(=O)OCc2c1cc1n(c2=O)Cc2cc3ccccc3nc2-1
GI50 [µM]: 0.01

[I] CC[C@@]1(O)C(=O)OCc2c1cc1n(c2=O)Cc2cc3c(CN(C)C)c(O)ccc3nc2-1
[II] Nc1cccc2c(=O)n3c(nc12)-c1nc2ccccc2cc1C3
Param pair: I , II . Output: the one whose GI50 is numerically greater. Refer to your chosen item by its label in the answer.
II

====

Experiment: Growth inhibition of topoisomerase 2 mutated mitoxantrone-resistant MX2 cells by Alamar blue assay
Format: functional
Details: Homo sapiens
In this section, each of the compounds is paired with its reported GI50.
// return numeric value only (unit: µM, not printed)

Query: GI50; subject: CCN(CC)CCOc1ccc2nc3c(cc2c1)Cn1c-3nc2ccccc2c1=O
10

Query: GI50; subject: O=C1c2c(O)ccc(O)c2C(=O)c2c(NCCNCCO)ccc(NCCNCCO)c21
0.13

Query: GI50; subject: CC[C@@]1(O)C(=O)OCc2c1cc1n(c2=O)Cc2cc3ccccc3nc2-1
0.02

Query: GI50; subject: CN(C)CCOc1ccc2nc3c(cc2c1)Cn1c-3nc2ccccc2c1=O
9

====

Tested on: CCRF-CEM
Test: Growth inhibition of human CEM cells by Alamar blue assay
Format: functional
RESULT TYPE: GI50 (µM)

A selection of reference data follows.
COMPOUND: CN(C)CCOc1ccc2nc3c(cc2c1)Cn1c-3nc2ccccc2c1=O
GI50 (µM): 3

COMPOUND: CC[C@@]1(O)C(=O)OCc2c1cc1n(c2=O)Cc2cc3ccccc3nc2-1 [CAMPTOTHECIN]
GI50 (µM): 0.002

[1] O=c1c2cc(O)c(O)cc2nc2n1Cc1cc3ccccc3nc1-2 [17,18-DIHYDROXYLUOTONIN A]
[2] CCN(CC)CCOc1ccc2nc3c(cc2c1)Cn1c-3nc2ccccc2c1=O
[3] Nc1cccc2c(=O)n3c(nc12)-c1nc2ccccc2cc1C3 [16-AMINOLUOTONIN A]
[4] CN(C)Cc1c(O)ccc2nc3c(cc12)Cn1c-3nc2ccccc2c1=O
Order the records by GI50, with each subsequent value no larger than the one before. Labels, requested order.
4, 1, 3, 2
(4: 30 µM, 1: 9 µM, 3: 6 µM, 2: 3 µM)

====

Test system: HL-60
Assay: Growth inhibition of human HL60 cells by Almar blue assay
Format: functional
RESULT TYPE: GI50 (µM)

A selection of reference data follows.
SMILES STRING: CN(C)Cc1c(O)ccc2nc3c(cc12)Cn1c-3nc2ccccc2c1=O
RESULT TYPE: GI50
MEASURED RESULT: 20
//
SMILES STRING: CCN(CC)CCOc1ccc2nc3c(cc2c1)Cn1c-3nc2ccccc2c1=O
RESULT TYPE: GI50
MEASURED RESULT: 4
//
SMILES STRING: CC[C@@]1(O)C(=O)OCc2c1cc1n(c2=O)Cc2cc3ccccc3nc2-1
RESULT TYPE: GI50
MEASURED RESULT: 0.03
//
SMILES STRING: O=C1c2c(O)ccc(O)c2C(=O)c2c(NCCNCCO)ccc(NCCNCCO)c21
RESULT TYPE: GI50
MEASURED RESULT: 0.01

[a] CN(C)CCOc1ccc2nc3c(cc2c1)Cn1c-3nc2ccccc2c1=O
[b] Nc1cccc2c(=O)n3c(nc12)-c1nc2ccccc2cc1C3
From the items above, decide which of a and b has the lower GI50 reading. Refer to your chosen item by its label in the answer.
a

====

In this section, each of the compounds is paired with its reported GI50.
Test system: MCF7
Assay: Growth inhibition of MCF7 cells after 4 days
Assay type: functional
Settings: Homo sapiens, MCF7, 96 h

COMPOUND: CN(C)Cc1c(O)ccc2nc3c(cc12)Cn1c-3nc2ccccc2c1=O
RESULT TYPE: GI50
MEASURED RESULT: 13 µM
--
COMPOUND: O=c1c2ccccc2nc2n1Cc1cc3cc(O)ccc3nc1-2 [10-HYDROXYLUOTONIN A]
RESULT TYPE: GI50
MEASURED RESULT: > 20 µM
--
COMPOUND: CCc1c2c(nc3ccc(OC(=O)N4CCC(N5CCCCC5)CC4)cc13)-c1cc3c(c(=O)n1C2)COC(=O)[C@]3(O)CC [IRINOTECAN]
RESULT TYPE: GI50
MEASURED RESULT: > 1 µM

Here's the next entry for you.
Query: GI50; subject: COc1cccc2c(=O)n3c(nc12)-c1nc2ccccc2cc1C3 [16-METHOXYLUOTONIN A]
> 20 µM

====

Experiment: Growth inhibition of topoisomerase 2 mutated mitoxantrone-resistant MX2 cells by Alamar blue assay
Type: functional
Conditions: Homo sapiens
RESULT TYPE: GI50

A selection of reference data follows.
COMPOUND: CN(C)Cc1c(O)ccc2nc3c(cc12)Cn1c-3nc2ccccc2c1=O
MEASURED RESULT: > 40 µM

COMPOUND: Nc1cccc2c(=O)n3c(nc12)-c1nc2ccccc2cc1C3
MEASURED RESULT: > 40 µM

Here's the next entry for you.
Query: GI50; subject: O=c1c2cc(O)c(O)cc2nc2n1Cc1cc3ccccc3nc1-2 [17,18-DIHYDROXYLUOTONIN A]
> 40 µM
